Reference for the values: ChEMBL document CHEMBL2375359

# Test system: Escherichia coli
# experimentalProtocol: Antibacterial activity against Escherichia coli at 160 ug/ml after 24 hrs by Oxford cup assay
# Assay type: functional
# conditionDetails: read-out: IZ
A collection of molecules and their measured zone of inhibition at 160 µg/mL

[
  {
    "molecule": "C=C[C@]1(C)C[C@@H](OC(=O)CSC(C)(C)CNC(=O)c2ccc(C)cc2)[C@]2(C)[C@H](C)CC[C@]3(CCC(=O)[C@H]32)[C@@H](C)[C@@H]1O",
    "assayTarget": "Escherichia coli",
    "zone of inhibition at 160 µg/mL, mm": 15.1
  },
  {
    "molecule": "C=C[C@]1(C)C[C@@H](OC(=O)CSC(C)(C)CNC(=O)c2cccc(N)c2)[C@]2(C)[C@H](C)CC[C@]3(CCC(=O)[C@H]32)[C@@H](C)[C@@H]1O",
    "assayTarget": "Escherichia coli",
    "zone of inhibition at 160 µg/mL, mm": 12.5
  },
  {
    "molecule": "C=C[C@]1(C)C[C@@H](OC(=O)CSC(C)(C)CNC(=O)c2cccc(Cl)c2)[C@]2(C)[C@H](C)CC[C@]3(CCC(=O)[C@H]32)[C@@H](C)[C@@H]1O",
    "assayTarget": "Escherichia coli",
    "zone of inhibition at 160 µg/mL, mm": 10.7
  }
]
